- System: human lymphoblast RPMI 8402
- PROTOCOL DETAILS: MTT cytotoxicity assay (Test B), RPMI 8402
- Type: cell-based
- CONDITIONS: RPMI 8402 cells, continuous exposure four days, read-out: Cytotoxicity (IC50 values (μM) RPMI8402)
Attribute: IC50
Answers without a unit are incomplete; give the number and then its unit.

Query string: Query for human lymphoblast RPMI 8402: what IC50 does the record show for COc1cc2c(cc1OC(=O)c1ccccc1C)c(=O)n(CCN(C)C)c1c3cc4c(cc3ncc21)OCO4 [Example 2] ?
Result string: 0.05 µM

Query string: Query for human lymphoblast RPMI 8402: what IC50 does the record show for COc1cc2c(cc1OC(=O)c1ccccc1)c(=O)n(CCN(C)C)c1c3cc4c(cc3ncc21)OCO4 [Example 1] ?
Result string: 0.009 µM
